Cited source: patent US20250011363A1

TARGET OF ASSAY: acetylcholine receptor
ASSAY EXPLANATION: SPR, receptor immobilized, peptide 10 uM
Where Binding affinity (RU) equals or exceeds 30 RU, the correct label is Yes; where it does not, the label is No.

>>> df
                binder  class_assignment
0    RYEGR [5mer-1071]                No
1  RRLFRR [6mer-1-137]               Yes
2  KNHNRR [6mer-2-839]               Yes

IN: Kindly determine if Binding affinity (RU) recorded for KPMVK [5mer-1092] is above or exactly 30 RU.
OUT: No

IN: Threshold query (Binding affinity (RU) >= 30 RU) on KKGQTR [6mer-1-183]
OUT: Yes
